Values were extracted from patent US8017611B2.

Subject of test: recombinant Axl tyrosine kinase (Homo sapiens)
Construct: encompassing amino acids 473 to 894 of Axl; GST (N); made in house; host or cells: SF126 insect cells
Assay details: In vitro Axl kinase assay (AlphaScreen), Test (a)
Assay type: biochemical
Conditions used: test compound at 1 μM; first value quoted
Readout: % Axl tyrosine kinase inhibition at 1 μM concentration

compound=Nc1ncc(-c2ccc(N3CCNCC3)nc2)nc1-c1nc2ccccc2o1 observed_measurement=99.3%
compound=NC(=O)CN1CCC(n2cc(-c3cnc(N)c(-c4nc5ccccc5o4)c3)cn2)CC1 observed_measurement=100.0%
compound="Nc1ncc(-c2ccc(OCCOCCN3CCOCC3)cc2)cc1-c1nc2ncccc2o1 [Example 43B.22]" observed_measurement=97.7%
compound=Cc1nn(C2CCN(C)CC2)cc1-c1cnc(N)c(-c2nc3cccnc3o2)c1 observed_measurement=99.7%
compound=CCN(CC)CCNC(=O)c1cccc(-c2cnc(N)c(-c3nc4cccnc4o3)c2)c1 observed_measurement=91.7%
compound=COCc1nn(C2CCN(C)CC2)cc1-c1cnc(N)c(-c2nc3c(F)cccc3o2)c1 observed_measurement=100.0%
compound=Nc1ncc(-c2ccc(CO)s2)cc1-c1nc2cccnc2o1 observed_measurement=95.6%
compound=Nc1ncc(-c2ccc(C(=O)N3CCOCC3)cc2)cc1-c1nc2cnccc2o1 observed_measurement=97.8%
compound="NCC1CCN(C(=O)c2ccc(-c3cnc(N)c(-c4nc5cccnc5o4)c3)cc2)CC1 [Example 45A.78]" observed_measurement=97.7%
compound="Nc1ncc(-c2ccc(C(=O)N3CCN(CCN4CCCC4)CC3)cc2)cc1-c1nc2cccnc2o1 [Example 45A.68]" observed_measurement=91.3%
compound="Nc1ncc(-c2ccc(C(=O)NCCCN3CC[C@H](F)C3)cc2)cc1-c1nc2cccnc2o1 [Example 45A.40]" observed_measurement=98.3%
compound="CN(C)C(=O)[C@@H]1CCCN1C(=O)c1ccc(-c2cnc(N)c(-c3nc4cccnc4o3)c2)cc1 [Example 45A.75]" observed_measurement=91.6%
compound=Nc1ncc(-c2cccc(C(=O)NC3CC3)c2)cc1-c1nc2cccnc2o1 observed_measurement=73.2%
compound=Nc1ncc(-c2cccc(CN3CCCC3)c2)cc1-c1nc2cnccc2o1 observed_measurement=95.6%
compound=COCc1nn(C2CCN(C)CC2)cc1-c1cnc(N)c(-c2nc3ccccc3o2)c1 observed_measurement=100.0%
compound="C[C@@H]1CN(CCNC(=O)c2ccc(-c3cnc(N)c(-c4nc5cccnc5o4)c3)cc2)C[C@H](C)O1 [Example 45A.45]" observed_measurement=93.8%
compound="CN1C2CCC1CC(Oc1ccc(-c3cnc(N)c(-c4nc5ncccc5o4)c3)cc1)C2 (centres unmarked) [Example 43B.21]" observed_measurement=99.6%
compound=COCc1ccccc1-c1cnc(N)c(-c2nc3ccccc3o2)c1 observed_measurement=98.5%
compound="Nc1ncc(-c2ccc(C(=O)N3CCC(N4CCOCC4)CC3)cc2)cc1-c1nc2cccnc2o1 [Example 45A.64]" observed_measurement=98.6%
compound="COc1cc(-c2cnc(N)c(-c3nc4ncccc4o3)c2)ccc1OC1CCNC1 (centres unmarked) [Example 43C.23]" observed_measurement=99.3%
compound="Nc1ncc(-c2ccc(C(=O)NCCN3CCOCC3)cc2)cc1-c1nc2ncccc2o1 [Example 45B.3]" observed_measurement=97.7%
compound="CC(O)c1nn(C2CCN(C)CC2)cc1-c1cnc(N)c(-c2nc3ccccc3o2)c1 (centres unmarked)" observed_measurement=99.9%
compound="CN1CCCC(Cn2cc(-c3cnc(N)c(-c4nc5ccccc5o4)c3)cn2)C1 (centres unmarked)" observed_measurement=100.0%
compound="CN(C)CCN1CCN(C(=O)c2ccc(-c3cnc(N)c(-c4nc5cccnc5o4)c3)cc2)CC1 [Example 45A.50]" observed_measurement=93.7%
compound="Nc1ncc(-c2ccc(C(=O)NC3CCNC3)cc2)cc1-c1nc2cccnc2o1 (centres unmarked) [Example 45A.106]" observed_measurement=98.4%
compound="Nc1ncc(-c2ccc(OC3CCNC3)cc2)cc1-c1nc2ncccc2o1 (centres unmarked) [Example 43B.27]" observed_measurement=98.2%

---

Subject of test: recombinant Axl tyrosine kinase (Homo sapiens, UniProt P30530)
Construct: encompassing amino acids 473 to 894 of Axl; GST (N); made in house; host or cells: SF126 insect cells
Sequence (P30530 473-894): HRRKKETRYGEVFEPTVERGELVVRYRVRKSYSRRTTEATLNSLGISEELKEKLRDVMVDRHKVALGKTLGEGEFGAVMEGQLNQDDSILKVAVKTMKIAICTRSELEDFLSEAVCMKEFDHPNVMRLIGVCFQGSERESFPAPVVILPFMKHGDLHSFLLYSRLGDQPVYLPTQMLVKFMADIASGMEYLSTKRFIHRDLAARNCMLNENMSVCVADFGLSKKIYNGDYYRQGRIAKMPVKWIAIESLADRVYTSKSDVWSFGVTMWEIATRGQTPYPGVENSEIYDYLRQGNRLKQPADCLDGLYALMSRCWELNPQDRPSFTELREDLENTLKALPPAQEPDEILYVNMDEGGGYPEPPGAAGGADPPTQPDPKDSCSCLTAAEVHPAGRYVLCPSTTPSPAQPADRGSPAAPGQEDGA
Assay details: In vitro Axl kinase assay (AlphaScreen), Test (a)
Format: biochemical
Conditions used: test compound at 1 μM; first value quoted
Readout: % Axl tyrosine kinase inhibition at 1 μM concentration (%)

molecule=Cc1nn(C2CCN(C)CC2)cc1-c1cnc(N)c(-c2nc3ncccc3o2)c1 unit_label=% observed_measurement=100.0
molecule="NCCCCOc1ccc(-c2cnc(N)c(-c3nc4ncccc4o3)c2)cc1 [Example 43B.34]" unit_label=% observed_measurement=95.7
molecule=CN1CC(n2cc(-c3cnc(N)c(-c4nc5ccccc5o4)c3)cn2)C1 unit_label=% observed_measurement=99.7
molecule="Nc1ncc(-c2ccc(OCCC3CCCCN3)cc2)cc1-c1nc2ncccc2o1 (centres unmarked) [Example 43B.40]" unit_label=% observed_measurement=97.7
molecule="CN1CCN(CCCOc2ccc(-c3cnc(N)c(-c4nc5ncccc5o4)c3)cc2)CC1 [Example 43B.14]" unit_label=% observed_measurement=95.1
molecule="CN(C)[C@H]1CCN(C(=O)c2ccc(-c3cnc(N)c(-c4nc5cccnc5o4)c3)cc2)C1 [Example 45A.77]" unit_label=% observed_measurement=96.1
molecule="COc1cc(-c2cnc(N)c(-c3nc4ncccc4o3)c2)ccc1OCCN(C)C [Example 43C.3]" unit_label=% observed_measurement=99.4
molecule=CN1CCN(c2ccc(-c3cnc(N)c(-c4nc5cccnc5o4)c3)cc2)CC1 unit_label=% observed_measurement=97.7
molecule="CN1CCCCC1CNC(=O)c1ccc(-c2cnc(N)c(-c3nc4cccnc4o3)c2)cc1 (centres unmarked) [Example 45A.26]" unit_label=% observed_measurement=99.6
molecule=COCc1nn(C2CCN(C)CC2)cc1-c1cnc(N)c(-c2nc3c(C#N)cccc3o2)c1 unit_label=% observed_measurement=100.0
molecule="Nc1ncc(-c2ccc(OCCOC3CCNCC3)cc2)cc1-c1nc2ncccc2o1 [Example 43B.37]" unit_label=% observed_measurement=97.6
molecule=Nc1ncc(-c2cnn(CCN3CCC3)c2)cc1-c1nc2ccccc2o1 unit_label=% observed_measurement=94.3
molecule="N#Cc1cccc2oc(-c3cc(-c4cnn(C5CCNCC5)c4)cnc3N)nc12 [Example 38A.3]" unit_label=% observed_measurement=99.9
molecule="Nc1ncc(-c2ccc(C(=O)N3CCCNCC3)cc2)cc1-c1nc2cccnc2o1 [Example 45A.82]" unit_label=% observed_measurement=98.4
molecule=CNS(=O)(=O)c1cccc(-c2cnc(N)c(-c3nc4cnccc4o3)c2)c1 unit_label=% observed_measurement=97.7
molecule=CN(C)CCNC(=O)c1cccc(-c2cnc(N)c(-c3nc4cnccc4o3)c2)c1 unit_label=% observed_measurement=95.6
molecule="CNCCCNC(=O)c1ccc(-c2cnc(N)c(-c3nc4cccnc4o3)c2)cc1 [Example 45A.81]" unit_label=% observed_measurement=99.6
molecule=Nc1ncc(-c2ccc(N3CCNCC3)cc2)nc1-c1nc2ccccc2o1 unit_label=% observed_measurement=100.0
molecule="Nc1ncc(-c2ccc(C(=O)NCCn3ccnc3)cc2)cc1-c1nc2cccnc2o1 [Example 45A.7]" unit_label=% observed_measurement=97.7
molecule="Nc1ncc(-c2ccc(C(=O)NC[C@H]3CCCNC3)cc2)cc1-c1nc2cccnc2o1 [Example 45A.93]" unit_label=% observed_measurement=99.3
molecule=CN(C)S(=O)(=O)c1cccc(-c2cnc(N)c(-c3nc4ccccc4o3)n2)c1 unit_label=% observed_measurement=91.8

---

Measured inhibition at 1 µM, listed per entry for reference.
Subject of test: recombinant Axl tyrosine kinase (Homo sapiens, UniProt P30530)
Construct: encompassing amino acids 473 to 894 of Axl; GST (N); made in house; host or cells: SF126 insect cells
Assay details: In vitro Axl kinase assay (AlphaScreen), Test (a)
Assay type: biochemical
Conditions used: test compound at 1 μM; first value quoted; read-out: % Axl tyrosine kinase inhibition at 1 μM concentration
Readout: inhibition at 1 µM (%)

molecule="COc1cc(-c2cnc(N)c(-c3nc4cccnc4o3)c2)ccc1OCCN1CCCC1 [Example 43C.1]" observed_measurement=99.4
molecule="CN1CCC(n2cc(-c3cnc(N)c(-c4nc5ccccc5s4)c3)cn2)CC1 [Example 16]" observed_measurement=99.8
molecule="CN1CCC(n2cc(-c3cnc(N)c(-c4nc5ccccc5o4)n3)cn2)CC1 [Example 18]" observed_measurement=99.3
molecule="CC(C)N1CCC(n2cc(-c3cnc(N)c(-c4nc5ccccc5o4)c3)cn2)CC1 [Example 5]" observed_measurement=100
molecule="Nc1ncc(-c2cnn(C3CCCCO3)c2)cc1-c1nc2ccccc2o1 (stereo not drawn) [Example 2.55]" observed_measurement=99.2
molecule="CN(C)C(=O)CN1CCC(n2cc(-c3cnc(N)c(-c4nc5ccccc5o4)c3)c(CO)n2)CC1 [Example 69]" observed_measurement=100
